test-summary: self-splicing fitness, log relative to wild type (ln ratio); higher = more splicing; Tetrahymena group I intron in knt gene, E. coli kanamycin selection, DiMSum; sequences stand for … in CUCUCU…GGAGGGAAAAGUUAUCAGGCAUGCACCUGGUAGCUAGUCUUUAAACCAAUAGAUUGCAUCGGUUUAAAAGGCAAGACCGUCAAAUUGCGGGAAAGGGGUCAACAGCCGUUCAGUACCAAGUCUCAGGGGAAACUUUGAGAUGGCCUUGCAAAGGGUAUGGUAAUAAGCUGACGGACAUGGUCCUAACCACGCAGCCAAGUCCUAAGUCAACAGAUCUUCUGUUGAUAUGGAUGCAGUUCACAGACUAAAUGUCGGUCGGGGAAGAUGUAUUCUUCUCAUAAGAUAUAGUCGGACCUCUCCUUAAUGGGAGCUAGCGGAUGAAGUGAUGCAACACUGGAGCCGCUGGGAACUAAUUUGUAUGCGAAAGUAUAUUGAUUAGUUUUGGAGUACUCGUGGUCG;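 also: selection with 25 µg/mL kanamycin versus none on LB agar overnight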
condition-context: 30 °C
Class (required): determined from self-splicing fitness (ln); valid ranges are bucket A: < -3; bucket B: ≥ -3 and < -2; bucket C: ≥ -2

Reference set (6 entries):
INSERT INTO measurements (entry_sequence, label_class) VALUES
  ('CUUCAGCAAUAUUACGGGCA', 'bucket A'),
  ('CGAUAGCAAUAUUACGUAUC', 'bucket A'),
  ('UUCUAGCAAUAUUACGACGG', 'bucket C'),
  ('GUUUAGCAAUAUUACGGCGG', 'bucket A'),
  ('GCAUAGCAAUAUUACGGCGA', 'bucket C'),
  ('AAGUAGCAAUAUUACGCGAA', 'bucket B');

Exercise: Form field 'band' for "UAAGAGCAAUAUUACGAAGG"
Key: bucket A

Exercise: What about "UAUUAGCAAUAUUACGAGAG" ?
Key: bucket A

Exercise: What about "UUGCAGCAAUAUUACGUACU" ?
Key: bucket C
